# tested.system: Voltage-gated inwardly rectifying potassium channel KCNH2 (Homo sapiens, UniProt Q12809)
# Sequence (Q12809 whole entry): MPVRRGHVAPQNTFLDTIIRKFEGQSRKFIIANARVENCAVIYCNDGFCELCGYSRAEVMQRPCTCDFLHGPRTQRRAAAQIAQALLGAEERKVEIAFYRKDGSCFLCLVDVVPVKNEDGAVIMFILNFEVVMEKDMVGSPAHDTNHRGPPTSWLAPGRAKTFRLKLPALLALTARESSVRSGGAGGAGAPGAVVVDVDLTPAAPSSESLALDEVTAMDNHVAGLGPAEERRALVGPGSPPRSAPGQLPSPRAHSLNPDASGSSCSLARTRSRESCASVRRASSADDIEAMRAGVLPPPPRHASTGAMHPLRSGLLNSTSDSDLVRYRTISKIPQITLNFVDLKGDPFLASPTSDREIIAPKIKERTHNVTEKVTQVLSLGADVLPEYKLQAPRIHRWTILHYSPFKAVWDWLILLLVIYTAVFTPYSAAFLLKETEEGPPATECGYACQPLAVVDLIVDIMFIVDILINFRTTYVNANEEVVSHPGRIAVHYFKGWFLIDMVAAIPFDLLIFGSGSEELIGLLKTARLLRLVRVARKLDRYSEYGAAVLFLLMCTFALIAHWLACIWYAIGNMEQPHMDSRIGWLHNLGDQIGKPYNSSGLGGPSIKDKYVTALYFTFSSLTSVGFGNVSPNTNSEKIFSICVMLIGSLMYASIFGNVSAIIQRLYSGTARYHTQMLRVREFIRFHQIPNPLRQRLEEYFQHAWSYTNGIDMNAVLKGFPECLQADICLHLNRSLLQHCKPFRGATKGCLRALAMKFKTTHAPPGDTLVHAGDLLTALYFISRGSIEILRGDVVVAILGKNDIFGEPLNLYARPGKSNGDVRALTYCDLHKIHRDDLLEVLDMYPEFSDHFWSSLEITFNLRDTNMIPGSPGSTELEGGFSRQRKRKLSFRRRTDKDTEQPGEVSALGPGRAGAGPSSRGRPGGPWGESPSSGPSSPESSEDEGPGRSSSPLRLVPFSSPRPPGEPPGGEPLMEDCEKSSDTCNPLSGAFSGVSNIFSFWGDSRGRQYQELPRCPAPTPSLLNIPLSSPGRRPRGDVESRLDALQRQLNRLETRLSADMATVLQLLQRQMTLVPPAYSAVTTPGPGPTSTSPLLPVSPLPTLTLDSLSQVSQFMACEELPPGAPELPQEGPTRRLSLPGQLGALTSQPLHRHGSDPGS
# assay.notes: Inhibition of hERG channel expressed in CHO cells at holding potential of -80 mV by whole cell patch clamp method
test.readout: IC50

Study these solved cases before continuing.
# mol.smiles, test.value
rows = [
    ("COC[C@H](Cc1ccccc1)NC[C@@H](O)c1cc(C(F)(F)F)nc2c(C(F)(F)F)cccc12", "17.3 µM"),
    ("CCCCCNC[C@H](O)c1cc(C(F)(F)F)nc2c(C(F)(F)F)cccc12", "5.6 µM"),
    ("CCCCCCCNC[C@H](O)c1cc(C(F)(F)F)nc2c(C(F)(F)F)cccc12", "> 30 µM"),
    ("CCCCCNC[C@@H](O)c1cc(C(F)(F)F)nc2c(C(F)(F)F)cccc12", "8.8 µM"),
]

Consider the record given below.
# IC50 lookup, item CCCCCCCNC[C@@H](O)c1cc(C(F)(F)F)nc2c(C(F)(F)F)cccc12
7 µM

###

# assay.notes: Cytotoxicity against human HepG2 cells assessed as reduction in cell viability incubated for 72 hrs by MTT assay
# Format: toxicity, cell-based
test.readout: IC50 at 72 h (µM)
Lab book: enter the figure in µM, no units written.

Study these solved cases before continuing.
# molecule, test.value
data = [
    ("OC[C@@H](Cc1ccccc1)NC[C@@H](O)c1cc(C(F)(F)F)nc2c(C(F)(F)F)cccc12 (single isomer, unassigned)", 15.4),
    ("OC[C@H](Cc1ccccc1)NC[C@@H](O)c1cc(C(F)(F)F)nc2c(C(F)(F)F)cccc12", 10.9),
    ("OC[C@H](Cc1ccccc1)NC[C@H](O)c1cc(C(F)(F)F)nc2c(C(F)(F)F)cccc12 (single isomer, unassigned)", 22.7),
    ("O[C@@H](CNCCN1CCN(C(c2ccccc2)c2ccccc2)CC1)c1cc(C(F)(F)F)nc2c(C(F)(F)F)cccc12", 3.3),
    ("O[C@@H](CNCC1CC1)c1cc(C(F)(F)F)nc2c(C(F)(F)F)cccc12", 6.6),
    ("O[C@H](CNCCNC(c1ccccc1)c1ccccc1)c1cc(C(F)(F)F)nc2c(C(F)(F)F)cccc12", 6.4),
    ("O[C@H](CNCCN1CCN(C(c2ccccc2)c2ccccc2)CC1)c1cc(C(F)(F)F)nc2c(C(F)(F)F)cccc12", 7),
    ("O[C@@H](CNCCCC(F)(F)F)c1cc(C(F)(F)F)nc2c(C(F)(F)F)cccc12", 29.7),
]

# IC50 at 72 h lookup, item COC[C@H](Cc1ccccc1)NC[C@@H](O)c1cc(C(F)(F)F)nc2c(C(F)(F)F)cccc12
11.6

# IC50 at 72 h lookup, item O[C@H](CNCCCC(F)(F)F)c1cc(C(F)(F)F)nc2c(C(F)(F)F)cccc12
7.6

# IC50 at 72 h lookup, item O[C@H](CNCC1CC1)c1cc(C(F)(F)F)nc2c(C(F)(F)F)cccc12
4.3

# IC50 at 72 h lookup, item O[C@@H](CNCCNC(c1ccccc1)c1ccccc1)c1cc(C(F)(F)F)nc2c(C(F)(F)F)cccc12
8.8

# IC50 at 72 h lookup, item COC[C@H](Cc1ccccc1)NC[C@H](O)c1cc(C(F)(F)F)nc2c(C(F)(F)F)cccc12
9.6

# IC50 at 72 h lookup, item OC[C@@H](Cc1ccccc1)NC[C@H](O)c1cc(C(F)(F)F)nc2c(C(F)(F)F)cccc12
16.8

###

# selectivity ratio per record follows
# assay.notes: Selectivity index, ratio of IC50 for cytotoxicity against human HepG2 cells to IC50 for antiplasmodial activity against Plasmodium falciparum 3D7 infected in human erythrocytes by HRP2-ELISA
# Type: toxicity, cell-based
# applied.conditions: read-out: Ratio IC50
I'd appreciate a reply containing only the number, no unit.

# compound, selectivity ratio
records = [
    ("COC[C@H](Cc1ccccc1)NC[C@@H](O)c1cc(C(F)(F)F)nc2c(C(F)(F)F)cccc12", 778),
    ("OC[C@H](Cc1ccccc1)NC[C@H](O)c1cc(C(F)(F)F)nc2c(C(F)(F)F)cccc12 (single isomer, unassigned)", 303),
    ("COC[C@H](Cc1ccccc1)NC[C@H](O)c1cc(C(F)(F)F)nc2c(C(F)(F)F)cccc12", 414),
]

# selectivity ratio lookup, item O[C@H](CNCCCC(F)(F)F)c1cc(C(F)(F)F)nc2c(C(F)(F)F)cccc12
493

###

# pIC50 per record follows
# System: Plasmodium falciparum
# assay.notes: Antiplasmodial activity CQ-resistant Plasmodium falciparum W2 infected in human erythrocytes assessed as inhibition of parasite growth measured after 72 hrs by HRP2-ELISA
# Type: functional, organism-based
# applied.conditions: W2, Erythrocyte
The scale used: pIC50 is minus the common logarithm of the concentration in molar units.

Study these solved cases before continuing.
# molecule, pIC50
data = [
    ("O[C@H](CNCCN1CCN(C(c2ccccc2)c2ccccc2)CC1)c1cc(C(F)(F)F)nc2c(C(F)(F)F)cccc12", 7.05),
    ("C=C[C@H]1CN2CC[C@H]1C[C@H]2[C@H](O)c1ccnc2ccc(OC)cc12 [QUININE]", 6.32),
    ("O[C@H](CNCC1CC1)c1cc(C(F)(F)F)nc2c(C(F)(F)F)cccc12", 7.80),
]

# pIC50 lookup, item O[C@@H](c1cc(C(F)(F)F)nc2c(C(F)(F)F)cccc12)[C@H]1CCCCN1 [(S,R)-MEFLOQUINE]
7.55

# pIC50 lookup, item COC[C@H](Cc1ccccc1)NC[C@H](O)c1cc(C(F)(F)F)nc2c(C(F)(F)F)cccc12
7.81

# pIC50 lookup, item OC[C@H](Cc1ccccc1)NC[C@H](O)c1cc(C(F)(F)F)nc2c(C(F)(F)F)cccc12 (single isomer, unassigned)
7.21

# pIC50 lookup, item O[C@H](CNCCCC(F)(F)F)c1cc(C(F)(F)F)nc2c(C(F)(F)F)cccc12
7.74

# pIC50 lookup, item O[C@@H](CNCCCC(F)(F)F)c1cc(C(F)(F)F)nc2c(C(F)(F)F)cccc12
6.64

# pIC50 lookup, item OC[C@H](Cc1ccccc1)NC[C@@H](O)c1cc(C(F)(F)F)nc2c(C(F)(F)F)cccc12
7.40

# pIC50 lookup, item COC[C@H](Cc1ccccc1)NC[C@@H](O)c1cc(C(F)(F)F)nc2c(C(F)(F)F)cccc12
7.96

###

# Tested on: Plasmodium falciparum
# assay.notes: Antiplasmodial activity against CQ-susceptible Plasmodium falciparum 3D7 assessed as inhibition of parasite growth measured after 48 hrs by SYBR Green 1 dye based fluorescence assay
# Format: functional, organism-based
# applied.conditions: 3D7, 48 h
test.readout: IC50 (nM)
Lab book: enter the figure in nM, no units written.

# mol.smiles, IC50, nM
rows = [
    ("COC[C@H](Cc1ccccc1)NC[C@@H](O)c1cc(C(F)(F)F)nc2c(C(F)(F)F)cccc12", 15.1),
]

Consider the record given below.
# IC50 lookup, item OC[C@H](NC[C@H](O)c1cc(C(F)(F)F)nc2c(C(F)(F)F)cccc12)c1ccccc1
136

###

# selectivity ratio per record follows
# assay.notes: Selectivity index, ratio of IC50 for cytotoxicity against chinese hamster CHO cells to IC50 for antiplasmodial activity against Plasmodium falciparum 3D7 infected in human erythrocytes by HRP2-ELISA
# Assay type: toxicity, cell-based
# applied.conditions: read-out: Ratio IC50
I'd appreciate a reply containing only the number, no unit.

Study these solved cases before continuing.
# compound, selectivity ratio
data = [
    ("O[C@H](CNCC1CC1)c1cc(C(F)(F)F)nc2c(C(F)(F)F)cccc12", 2400),
    ("OC[C@@H](Cc1ccccc1)NC[C@H](O)c1cc(C(F)(F)F)nc2c(C(F)(F)F)cccc12", 250),
    ("COC[C@H](Cc1ccccc1)NC[C@@H](O)c1cc(C(F)(F)F)nc2c(C(F)(F)F)cccc12", 3170),
    ("O[C@H](CNCCNC(c1ccccc1)c1ccccc1)c1cc(C(F)(F)F)nc2c(C(F)(F)F)cccc12", 377),
    ("OC[C@@H](Cc1ccccc1)NC[C@@H](O)c1cc(C(F)(F)F)nc2c(C(F)(F)F)cccc12 (single isomer, unassigned)", 345),
]

# selectivity ratio lookup, item O[C@H](CNCCN1CCN(C(c2ccccc2)c2ccccc2)CC1)c1cc(C(F)(F)F)nc2c(C(F)(F)F)cccc12
213

# selectivity ratio lookup, item O[C@@H](CNCC1CC1)c1cc(C(F)(F)F)nc2c(C(F)(F)F)cccc12
1420

# selectivity ratio lookup, item COC[C@H](Cc1ccccc1)NC[C@H](O)c1cc(C(F)(F)F)nc2c(C(F)(F)F)cccc12
1620

# selectivity ratio lookup, item O[C@@H](CNCCCC(F)(F)F)c1cc(C(F)(F)F)nc2c(C(F)(F)F)cccc12
199
